PARTICULARS: [M+Na]+; instrument: DT; stepped-field
READOUT_TYPE: collision cross section (N2) (Å²)

[A] C/C=C(\C)C(=O)NCC(=O)O
[B] OC[C@H]1O[C@H](O[C@H]2[C@H](O)[C@@H](O)[C@@H](O[C@H]3[C@H](O)[C@@H](O)[C@@H](O[C@H]4[C@H](O)[C@@H](O)[C@@H](O)O[C@@H]4CO)O[C@@H]3CO)O[C@@H]2CO)[C@H](O)[C@@H](O)[C@@H]1O
Inquiry: Out of A and B , name the one with the higher collision cross section (N2). Answer by stating the label of the chosen item.
Reply text: B
(B: 230.47 Å², A: 146.68 Å²)

[P] OC1OC[C@@H](O)[C@H](O)[C@H]1O (stereo partly drawn) [D-(+)-Xylose]
[Q] CCCCCCCCCCCCC=CC[C@@H](O)[C@H](COP(=O)([O-])OCC[N+](C)(C)C)NC(=O)CCCCCCCCCCCCCCCC
Inquiry: # min-compare on collision cross section (N2) between P and Q Answer by stating the label of the chosen item.
Reply text: P
(P: 132.07 Å², Q: 291.89 Å²)

[1] CC(=O)N[C@@H](CCC(=O)O)C(=O)O [N-Acetyl-L-glutamate]
[2] CCCCCCCCCCCCC(=O)OCC(O)COP(=O)([O-])OCC[N+](C)(C)C (centres undefined)
Inquiry: Out of 1 and 2 , name the one with the higher collision cross section (N2). Answer by stating the label of the chosen item.
Reply text: 2
(2: 225.41 Å², 1: 149.63 Å²)

Reference for the values: the C3SDB collision cross section collection
